Readings of DC50 for the listed compounds
Biological target: Nanoluciferase-BRD9 fusion protein (Homo sapiens (Human))
Assay: SYO1 BRD9 NanoLuc degradation assay
Format: cell-based
Conditions: Table 5C; SYO-1 cells expressing 3×FLAG-NLuc-BRD9, 6 hours; read-out: SYO1 BRD9-NanoLuc degradation IC50

Examples with their reported DC50 follow.
* COc1cc(-c2cn(C)c(=O)c3cn(C)nc23)cc(OC)c1CN1CCC2(CC1)CN(c1ccc3c(c1)C(=O)N(C1CCC(=O)NC1=O)C3)C2 (stereo not drawn) [Compound D416] | < 10 nM
* COc1cc(-c2ccn3c(=O)n(C)ccc23)cc(OC)c1CN1CCC2(CC1)CN(c1ccc3c(c1)C(=O)N(C1CCC(=O)NC1=O)C3)C2 (stereo not drawn) [Compound D435] | > 1000 nM

Consider the record given below.
Give its DC50 value. Item: COc1cc(-c2cn(C)c(=O)c3[nH]ncc23)cc(OC)c1CN1CCC2(CC1)CN(c1ccc3c(c1)C(=O)N(C1CCC(=O)NC1=O)C3)C2 (stereo not drawn) [Compound D433]
< 10 nM

====

Molecular target: Nanoluciferase-BRD9 fusion protein (Homo sapiens (Human), UniProt Q9H8M2)
Sequence (Q9H8M2 whole entry, the tested form may be a part): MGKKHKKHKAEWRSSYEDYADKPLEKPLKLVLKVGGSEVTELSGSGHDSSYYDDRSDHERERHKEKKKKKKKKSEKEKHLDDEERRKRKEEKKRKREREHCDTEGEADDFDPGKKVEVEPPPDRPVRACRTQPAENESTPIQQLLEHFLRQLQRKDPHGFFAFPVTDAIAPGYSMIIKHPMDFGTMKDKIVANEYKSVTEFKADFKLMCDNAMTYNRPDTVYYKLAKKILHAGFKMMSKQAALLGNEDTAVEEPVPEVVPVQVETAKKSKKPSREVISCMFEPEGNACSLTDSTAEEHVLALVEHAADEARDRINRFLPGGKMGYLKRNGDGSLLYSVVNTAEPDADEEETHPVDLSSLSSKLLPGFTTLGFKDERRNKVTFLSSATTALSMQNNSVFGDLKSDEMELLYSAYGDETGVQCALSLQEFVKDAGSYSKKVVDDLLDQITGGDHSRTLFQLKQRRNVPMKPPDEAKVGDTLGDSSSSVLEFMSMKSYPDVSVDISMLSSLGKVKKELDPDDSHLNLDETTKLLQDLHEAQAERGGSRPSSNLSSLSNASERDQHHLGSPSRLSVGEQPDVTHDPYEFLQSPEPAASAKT
Test: SYO1 BRD9 NanoLuc degradation assay
Assay type: cell-based
Details: Table 5B; SYO-1 cells expressing 3×FLAG-NLuc-BRD9, 6 hours; read-out: SYO1 BRD9-NanoLuc degradation IC50
Readings of DC50 for the listed compounds

* COc1cc(-c2cn(C)c(=O)c3cnccc23)cc(OC)c1CN1CC(n2cc(CCOc3ccc4c(c3)C(=O)N(C3CCC(=O)NC3=O)C4=O)nn2)C1 (stereo not shown) [Compound D298] | < 10 nM
* COc1cc(-c2cc(C)c(=O)n(C)n2)cc(OC)c1CN1CCC2(CC1)CN(c1ccc3c(c1)C(=O)N(C1CCC(=O)NC1=O)C3)C2 (stereo not shown) [Compound D358] | < 10 nM
* COc1cc(-c2cc(C(F)(F)F)c(=O)n(C)c2)cc(OC)c1CN1CCC(CCN2CCN(c3ccc4c(c3)C(=O)N(C3CCC(=O)NC3=O)C4=O)CC2)CC1 (stereo not shown) [Compound D328] | < 10 nM

Give its DC50 value. Item: COc1cc(-c2cn(C)c(=O)c3cnccc23)cc(OC)c1CN1CC2(C1)CN(C(=O)CC#Cc1ccc3c(c1)C(=O)N(C1CCC(=O)NC1=O)C3=O)C2 (stereo not shown) [Compound D317]
10 to 100 nM

Give its DC50 value. Item: COc1cc(-c2cn(C)c(=O)c3cnccc23)cc(OC)c1CN1CC(S(=O)(=O)NCCN2CCN(c3ccc4c(c3)C(=O)N(C3CCC(=O)NC3=O)C4=O)CC2)C1 (stereo not shown) [Compound D179]
10 to 100 nM

Give its DC50 value. Item: COc1cc(-c2cn(C)c(=O)c3cnccc23)cc(OC)c1CN1CCC(c2nc(COc3ccc4c(c3)C(=O)N(C3CCC(=O)NC3=O)C4=O)co2)CC1 (stereo not shown) [Compound D325]
< 10 nM

Give its DC50 value. Item: COc1cc(-c2cc(C#N)c(=O)n(C)c2)cc(OC)c1CN1CC(CN2CCC3(CC2)CN(c2ccc4c(c2)C(=O)N(C2CCC(=O)NC2=O)C4=O)C3)C1 (stereo not shown) [Compound D352]
> 1000 nM

Give its DC50 value. Item: COc1cc(-c2cn(C)c(=O)c(C)c2C)c(OC)cc1CN1CC(CN2CCC3(CC2)CN(c2ccc4c(c2)C(=O)N(C2CCC(=O)NC2=O)C4=O)C3)C1 (stereo not shown) [Compound D354]
< 10 nM
